target: Estrogen receptor (Homo sapiens) (UniProt P03372); assay: qHTS assay to identify small molecule antagonists of the estrogen receptor alpha (ER-alpha) signaling pathway (AID 743069); conditions: HEK293 ER-alpha-UAS-bla, beta-lactamase ratio, antagonist mode; series mostly up to 69.4 µM
Sequence (P03372 whole entry, looked up): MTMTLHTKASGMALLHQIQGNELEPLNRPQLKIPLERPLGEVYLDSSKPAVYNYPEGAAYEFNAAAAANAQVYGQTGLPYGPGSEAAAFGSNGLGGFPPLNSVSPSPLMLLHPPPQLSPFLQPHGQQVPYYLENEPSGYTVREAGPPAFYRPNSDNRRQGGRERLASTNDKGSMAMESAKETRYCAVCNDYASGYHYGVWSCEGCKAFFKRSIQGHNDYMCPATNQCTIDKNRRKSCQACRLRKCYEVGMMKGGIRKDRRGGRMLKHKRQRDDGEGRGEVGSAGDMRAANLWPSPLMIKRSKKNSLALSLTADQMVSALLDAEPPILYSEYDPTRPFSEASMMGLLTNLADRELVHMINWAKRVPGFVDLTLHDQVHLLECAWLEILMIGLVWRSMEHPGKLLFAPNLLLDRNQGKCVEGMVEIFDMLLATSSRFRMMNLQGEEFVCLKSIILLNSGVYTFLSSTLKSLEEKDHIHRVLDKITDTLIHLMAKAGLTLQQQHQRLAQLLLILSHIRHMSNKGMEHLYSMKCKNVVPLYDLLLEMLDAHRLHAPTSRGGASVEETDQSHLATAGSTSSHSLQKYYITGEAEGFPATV
The source made the active and inactive calls. The call rests on the fitted dose curve; in most records, active means well fitted curve in the direction sought with a large enough effect in the signal ratio in the repeat runs (not every such curve was filed as active); inconclusive means weak or mixed curves, or effect the other way; inactive means no such curve, though single readings can be large or run the other way; the % refers to the signal ratio.
Would you mind answering with one of these outcomes? active, inactive

CC1(O)CCC(C(C)(C)O)CC1 (stereo not drawn)	inactive
O=C(O)[C@H](CC(=O)N1C[C@H]2CCCC[C@H]2C1)Cc1ccccc1	inactive
O=C(Cc1cccs1)N[C@@H]1C(=O)N2C(C(=O)[O-])=C(C[n+]3ccccc3)CS[C@H]12	inactive
OCC(O)COc1ccc(Cl)cc1 (stereo not drawn)	inactive
FC(F)(F)C(F)(F)C(F)(F)C(F)(F)C(F)(F)C(F)(F)F	inactive

*Q* // return assay outcome for "CCCCCCCCCCCCCCCCOCCOCCOCCOCCOCCOCCOCCOCCOCCOCCOCCOCCOCCOCCOCCOCCOCCOCCOCCOCCO"
*A* active

*Q* // return assay outcome for "CCCCCCCCCCCCCCCC(=O)O[C@@H]1[C@@H](O)[C@@H](O)[C@@H]([C@H](NC(=O)[C@@H]2C[C@@H](CCC)CN2C)[C@H](C)Cl)O[C@@H]1SC"
*A* inactive

*Q* // return assay outcome for CC(O)[C@H]1CC[C@H]2[C@@H]3CC[C@@H]4C[C@@H](O)CC[C@]4(C)[C@H]3CC[C@]12C (stereo partly drawn)
*A* inactive

*Q* // return assay outcome for COc1cc(S(C)=O)ccc1-c1nc2ncccc2[nH]1 (stereo not drawn)
*A* inactive

*Q* // return assay outcome for "CCCOc1cc(N)ccc1C(=O)OCCN(CC)CC"
*A* inactive

*Q* // return assay outcome for "CC[C@@]1(O)C(=O)OCc2c1cc1n(c2=O)Cc2cc3c([N+](=O)[O-])cccc3nc2-1"
*A* active

###

target: Estrogen receptor (Homo sapiens) (UniProt P03372); test: qHTS assay to identify small molecule antagonists of the estrogen receptor alpha (ER-alpha) signaling pathway (AID 743069); settings: HEK293 ER-alpha-UAS-bla, beta-lactamase ratio, antagonist mode; series mostly up to 69.4 µM
Activity calls are given as the source filed them. Calls come from the whole dose curve; as a rule, active = well fitted curve in the direction sought with a large enough effect in the signal ratio in the repeat runs (not every such curve was filed as active); inconclusive = weak or mixed curves, or effect the other way; inactive = no such curve, though single readings can be large or run the other way; the % refers to the signal ratio.
Would you mind answering with one of these outcomes? 1 (active), -1 (inactive)

Please review the following examples before continuing.
CN(C)CC/C=C1/c2ccccc2CSc2ccccc21	-1
C[N@+]12CCCC[C@@H]1CCC(=C(c1cccs1)c1cccs1)C2	-1
Cc1ccc(C2(O)CCN(CCCC(=O)c3ccc(F)cc3)CC2)cc1	-1
CCCCCCCCCCCCCCCCCC(=O)[O][Al]	-1
O=S(=O)(O)Oc1ccc(C(c2ccc(OS(=O)(=O)O)cc2)c2ccccn2)cc1	-1
COc1cc2c(cc1OC)CC(=O)N(CCCN(C)C[C@H]1Cc3cc(OC)c(OC)cc31)CC2	-1
CC1(C)S[C@@H]2[C@H](NC(=O)[C@H](N)c3ccccc3)C(=O)N2[C@H]1C(=O)OCOC(=O)[C@@H]1N2C(=O)C[C@H]2S(=O)(=O)C1(C)C	1
CN1CCCC(CN2c3ccccc3Sc3ccccc32)C1 (stereo not given)	1
O=C(O)c1ccc(OCCn2ccnc2)cc1	-1

Then there is this compound:
*Q* // return assay outcome for OC[C@H]1OC([S-])[C@H](O)[C@@H](O)[C@@H]1O.[Au+] (stereo not given in full)
*A* -1

###

target: Aromatase (Homo sapiens) (UniProt P11511); experiment: qHTS assay to identify aromatase inhibitors (AID 743083); details: MCF-7 aro ERE, testosterone-driven ERE luciferase, 24 h; series mostly up to 70.3 µM; further: nearly all actives have a fitted effect of over 55% in size
Sequence (P11511 whole entry, looked up): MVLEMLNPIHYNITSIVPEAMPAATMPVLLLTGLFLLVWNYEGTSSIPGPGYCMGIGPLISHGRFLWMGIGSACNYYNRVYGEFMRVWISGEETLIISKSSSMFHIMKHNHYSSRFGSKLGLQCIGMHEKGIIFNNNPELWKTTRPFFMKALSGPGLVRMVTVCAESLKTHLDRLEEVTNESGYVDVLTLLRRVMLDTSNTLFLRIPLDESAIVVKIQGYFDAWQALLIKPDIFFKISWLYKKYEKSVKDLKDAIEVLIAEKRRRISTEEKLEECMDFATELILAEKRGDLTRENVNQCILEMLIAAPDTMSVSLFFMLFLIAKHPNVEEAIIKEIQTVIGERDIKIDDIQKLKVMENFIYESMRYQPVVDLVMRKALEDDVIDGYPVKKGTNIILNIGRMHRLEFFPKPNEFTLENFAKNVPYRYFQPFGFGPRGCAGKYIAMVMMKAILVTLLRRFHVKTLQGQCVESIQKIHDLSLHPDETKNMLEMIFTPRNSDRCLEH
Records with an inconclusive call do not appear. Activity calls are given as the source filed them. The call rests on the fitted dose curve; in most records, active means well fitted inhibition curve with a large enough effect in the repeat runs; inconclusive means weak or mixed curves; inactive means no such curve, though single readings can be large or run the other way.
Would you mind answering with one of these outcomes? T for active, F for inactive

Please review the following examples before continuing.
Cc1cccc(C)c1Nc1ncccc1C(=O)O	F
CC[C@@]1(O)C[C@H](O[C@H]2C[C@H](N(C)C)[C@H](O[C@H]3C[C@H](O)[C@H](O[C@H]4CCC(=O)[C@H](C)O4)[C@H](C)O3)[C@H](C)O2)c2c(cc3c(c2O)C(=O)c2c(O)cccc2C3=O)[C@H]1C(=O)OC	T
C/C1=C2N=C(/C=C3N=C(/C(C)=C4\[N-][C@@](C)([C@@H]5N=C1[C@](C)(CCC(=O)NCC(C)OP(=O)(O)O[C@H]1[C@@H](O)[C@@H](n6cnc7cc(C)c(C)cc76)O[C@@H]1CO)[C@H]5CC(N)=O)[C@@](C)(CC(N)=O)[C@@H]4CCC(N)=O)[C@@](C)(CC(N)=O)[C@@H]\3CCC(N)=O)C(C)(C)[C@@H]/2CCC(N)=O.CC(=O)O.[Co] (some centres undefined)	T

*Q* // return assay outcome for "O=P(O)(O)C(O)(Cc1cnc2ccccn12)P(=O)(O)O"
*A* F

*Q* // return assay outcome for "CO/N=C(\C(=O)N[C@@H]1C(=O)N2C(C(=O)OCOC(=O)C(C)(C)C)=C(/C=C\c3scnc3C)CS[C@H]12)c1csc(N)n1"
*A* F

*Q* // return assay outcome for "CCOC(=O)COc1ccc2c(C)c(CCN(CC)CC)c(=O)oc2c1"
*A* F

*Q* // return assay outcome for CNC(C)CCC=C(C)C (centres undefined)
*A* F

*Q* // return assay outcome for "O=C(NNCNNC(=O)c1ccncc1)c1ccncc1"
*A* F

*Q* // return assay outcome for "CCNC(=O)[C@@H]1CCCN1C(=O)[C@H](CCCN=C(N)N)NC(=O)[C@H](CC(C)C)NC(=O)[C@@H](Cc1c[nH]c2ccccc12)NC(=O)[C@H](Cc1ccc(O)cc1)NC(=O)[C@H](CO)NC(=O)[C@H](Cc1c[nH]c2ccccc12)NC(=O)[C@H](Cc1cnc[nH]1)NC(=O)[C@@H]1CCC(=O)N1"
*A* T

*Q* // return assay outcome for CO[C@@]1(NC(=O)C2SC(=C(C(N)=O)C(=O)O)S2)C(=O)N2C(C(=O)O)=C(CSc3nnnn3C)CS[C@@H]21 (some centres undefined)
*A* F

*Q* // return assay outcome for "CC(C)(S)[C@@H](N)C(=O)O"
*A* F

###

test: qHTS assay to identify small molecule antagonists of the thyroid receptor (TR) signaling pathway - cell viability counter screen (AID 743064); conditions: GH3.TRE-Luc viability, CellTiter-Fluor, 24 h; series mostly up to 70.3 µM; further: nearly all actives have a fitted effect of over 50% in size
Records with an inconclusive call do not appear. The source made the active and inactive calls. Calls come from the whole dose curve; as a rule, active = well fitted cell-killing curve with a large enough effect in the repeat runs; inconclusive = weak or mixed curves, or effect the other way; inactive = no such curve, though single readings can be large or run the other way.
Would you mind answering with one of these outcomes? active, inactive

Please review the following examples before continuing.
CC1(S(=O)(=O)O)CC(=O)c2ccccc2C1=O (stereo not given)	active
O=P(O)(O)C(Sc1ccc(Cl)cc1)P(=O)(O)O	inactive
C=C[C@]1(C)C[C@@H](OC(=O)CO)[C@]2(C)[C@H](C)CC[C@]3(CCC(=O)[C@H]32)[C@@H](C)[C@@H]1O	inactive

*Q* // return assay outcome for "NCCCC[C@H](N)C(=O)O"
*A* inactive

*Q* // return assay outcome for "COC(=O)C1=C(C)NC(C)=C(C(=O)O[C@H]2CCN(Cc3ccccc3)C2)[C@H]1c1cccc([N+](=O)[O-])c1"
*A* active

*Q* // return assay outcome for "CC(=O)Nc1c(I)c(C(=O)O)c(I)c(N(C)C(C)=O)c1I"
*A* inactive

*Q* // return assay outcome for "O=C1CSC2(CCN(CCCN3c4ccccc4Sc4ccc(Cl)cc43)CC2)N1"
*A* active

*Q* // return assay outcome for "O=C(O)c1cc(O)c2c(c1)[O][Bi][O]2"
*A* inactive

*Q* // return assay outcome for "CC(=O)c1ccc2c(c1)N(CCCN1CCN(CCO)CC1)c1ccccc1S2"
*A* active

*Q* // return assay outcome for "COc1cc(-c2ccc(-[n+]3nc(-c4ccccc4)nn3-c3ccc([N+](=O)[O-])cc3)c(OC)c2)ccc1-[n+]1nc(-c2ccccc2)nn1-c1ccc([N+](=O)[O-])cc1"
*A* active

###

test: qHTS assay for identifying genotoxic compounds that show differential cytotoxicity against isogenic chicken DT40 cell lines with known DNA damage response pathways - Rad54/Ku70 mutant cell line (AID 743015); settings: DT40 Rad54/Ku70 mutant viability, CellTiter-Glo, 40 h; series mostly up to 66.8 µM; further: nearly all actives have a fitted effect of over 60% in size; further: potency means the concentration at half of the fitted maximal effect
Results filed as inconclusive are left out. Activity calls are given as the source filed them. The call rests on the fitted dose curve; in most records, active means well fitted cell-killing curve with a large enough effect in the repeat runs; inconclusive means weak or mixed curves; inactive means no such curve, though single readings can be large or run the other way. Positions of bridges follow the written chain, without caps; N, C: chain ends. Non-standard residues stand in square brackets, D forms with d. Residues, ends and D or L forms follow the SMILES beside them. ξ: configuration not given here. *: point of attachment. d(aThr) = C[C@@H](O)[C@@H](N)C(=O)O; ξThr(3R) = C[C@@H](O)C(N)C(=O)O; X3 = CC[C@@H](C)CCCCC(=O)*; dDab = NCC[C@@H](N)C(=O)O
readout type: Potency

Consider the worked cases shown below.
O=P(O)(O)C(Sc1ccc(Cl)cc1)P(=O)(O)O	inactive
NC(N)=NCC1COc2ccccc2O1 (stereo not given)	inactive
COC(=O)CCC(=O)CN	inactive
COc1ccc(C[C@H](N)C(=O)N[C@H]2[C@@H](O)[C@H](n3cnc4c(N(C)C)ncnc43)O[C@@H]2CO)cc1	inactive
CCCCCCCCCCCCCCCCCCCCCCO	inactive

The value of Potency measured for the compound CC(O)[C@@H]1NC(=O)[C@H](CCCCN)NC(=O)[C@@H](Cc2c[nH]c3ccccc23)NC(=O)[C@H](Cc2ccccc2)NC(=O)[C@@H](NC(=O)[C@H](N)Cc2ccccc2)CSSC[C@@H](C(=O)N[C@H](CO)[C@@H](C)O)NC1=O (stereo not given in full) turned out to be inactive

The value of Potency measured for the compound CC[C@@H](C)CCCCC(=O)N[C@H](CCN)C(=O)N[C@@H](C(=O)N[C@H](CCN)C(=O)N[C@@H]1CCNC(=O)C([C@@H](C)O)NC(=O)[C@@H](CCN)NC(=O)[C@@H](CCN)NC(=O)[C@@H](CC(C)C)NC(=O)[C@@H](Cc2ccccc2)NC(=O)[C@@H](CCN)NC1=O)[C@@H](C)O (stereo partly drawn) (X3-[dDab][d(aThr)][dDab][dDab][dDab][dF][dL][dDab][dDab][ξThr(3R)]; lactam 4-C) turned out to be inactive

The value of Potency measured for the compound "CN1CCN(CCC=C2c3ccccc3Sc3ccc(S(=O)(=O)N(C)C)cc32)CC1" turned out to be 16.8 µM (active)

The value of Potency measured for the compound "C=CCSSSCC=C" turned out to be inactive
